# measurementTarget: recombinant rat FAAH (rFAAH) (Rattus norvegicus)
# Construct: The truncated rat FAAH (rFAAH) was expressed in E. coli and purified; made in house; host or cells: Escherichia coli
# Sequence (P97612 30-579 limits assumed): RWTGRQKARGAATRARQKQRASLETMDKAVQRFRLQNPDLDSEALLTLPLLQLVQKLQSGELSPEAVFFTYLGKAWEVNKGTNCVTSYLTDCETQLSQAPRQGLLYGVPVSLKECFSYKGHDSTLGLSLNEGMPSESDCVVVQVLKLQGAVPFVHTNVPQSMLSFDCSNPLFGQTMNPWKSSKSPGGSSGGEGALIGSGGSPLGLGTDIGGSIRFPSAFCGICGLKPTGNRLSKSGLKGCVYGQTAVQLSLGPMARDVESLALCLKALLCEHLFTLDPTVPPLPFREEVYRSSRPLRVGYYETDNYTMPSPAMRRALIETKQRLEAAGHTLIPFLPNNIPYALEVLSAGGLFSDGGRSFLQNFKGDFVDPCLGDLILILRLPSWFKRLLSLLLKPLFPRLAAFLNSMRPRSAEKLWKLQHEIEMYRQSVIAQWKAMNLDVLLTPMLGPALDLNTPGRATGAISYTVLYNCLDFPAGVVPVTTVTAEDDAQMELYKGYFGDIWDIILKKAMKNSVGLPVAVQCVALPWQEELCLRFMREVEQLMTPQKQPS
# methodSummary: Enzyme assay: inhibition of purified recombinant rat FAAH, 14C-oleamide hydrolysis, Ki by Dixon plot
# Type: biochemical
# testSettings: Ki, Table 3, (R)-enantiomer, indane C2 acyl side chain
reportedProperty: pKi
Please note pKi is a logarithmic value: minus log10 of concentration in mol/L. Answer with that number alone.

Recorded results for 2 molecules are shown here.
| molecule | measurementTarget | pKi |
| --- | --- | --- |
| O=C(c1ncc(-c2ccccn2)o1)C1Cc2ccc(Oc3ccccc3)cc2C1 (single isomer, unassigned) [(R)-27] | recombinant rat FAAH (rFAAH) (Rattus norvegicus) | 7.38 |
| O=C(c1ncc(-c2ccccn2)o1)C1Cc2ccc(-c3ccccc3)cc2C1 (single isomer, unassigned) [(R)-23] | recombinant rat FAAH (rFAAH) (Rattus norvegicus) | 6.22 |

Now look at this one.
# query: pKi of entry O=C(c1ncco1)C1Cc2ccc(-c3ccccc3)cc2C1 (single isomer, unassigned) [(R)-22, Oxazol-2-yl(5-phenylindan-2-yl)methanone]
6.85
